measurementTarget: human GlyT1c transporter (Homo sapiens, UniProt P48067)
Construct: expressed in transfected cells; host or cells: CHO cells (recombinant; line hGlyT1c_5_CHO is named for the uptake assay)
Sequence (P48067 1-706): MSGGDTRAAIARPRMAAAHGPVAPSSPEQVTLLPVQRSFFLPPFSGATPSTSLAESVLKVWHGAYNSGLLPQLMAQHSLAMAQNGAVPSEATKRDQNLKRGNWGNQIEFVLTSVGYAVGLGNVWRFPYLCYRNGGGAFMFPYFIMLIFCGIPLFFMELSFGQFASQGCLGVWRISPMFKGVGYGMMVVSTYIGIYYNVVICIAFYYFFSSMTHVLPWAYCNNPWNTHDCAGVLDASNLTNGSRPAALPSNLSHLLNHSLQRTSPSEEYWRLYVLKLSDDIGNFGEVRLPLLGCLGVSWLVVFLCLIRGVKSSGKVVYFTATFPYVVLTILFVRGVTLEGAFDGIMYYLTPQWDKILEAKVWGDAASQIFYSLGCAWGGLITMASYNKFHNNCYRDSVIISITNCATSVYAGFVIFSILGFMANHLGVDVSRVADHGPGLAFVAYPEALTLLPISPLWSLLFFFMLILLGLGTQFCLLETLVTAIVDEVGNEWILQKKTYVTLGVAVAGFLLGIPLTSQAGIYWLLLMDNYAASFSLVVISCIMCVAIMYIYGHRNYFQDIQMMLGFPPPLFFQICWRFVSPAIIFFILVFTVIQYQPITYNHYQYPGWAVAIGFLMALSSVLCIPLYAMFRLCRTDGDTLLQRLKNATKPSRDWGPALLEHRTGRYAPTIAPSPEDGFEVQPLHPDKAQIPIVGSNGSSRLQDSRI
procedureText: Radioligand binding assay using recombinant CHO cell membranes expressing human GlyT1
conditionContext: radioligand binding to human GlyT1c transporter-expressing membranes
pKi: −log10 of the molar value.
Listed below: pKi values for each entry.

Examples with answers:
[[record]]
compound = "Cn1cnc(S(=O)(=O)N2CC(c3ccc(F)cc3)C(c3ccc(Cl)cc3)C2)c1 (centres unmarked) [Example 340]"
datavalue = "≥ 6.00"

[[record]]
compound = "Cn1cnc(S(=O)(=O)N2C[C@@H](Nc3ccc(Cl)cc3)[C@H](c3ccccc3Cl)C2)c1 (relative stereo) [Example 254]"
datavalue = "≥ 5.00"

[[record]]
compound = "Cn1cnc(S(=O)(=O)N2C[C@@H](Nc3ccc(Cl)c(C(F)(F)F)c3)[C@H](C3CCCO3)C2)c1 (some centres unmarked) [Example 618]"
datavalue = "≥ 6.00"

[[record]]
compound = "Cn1cnc(S(=O)(=O)N2C[C@@H](COc3ccc(F)c(Cl)c3)[C@H](c3ccc(F)cc3)C2)c1 (relative stereo) [Example 318]"
datavalue = "≥ 6.00"

[[record]]
compound = "CCCC(C)CN[C@H]1CN(S(=O)(=O)c2cn(C)cn2)C[C@@H]1c1ccccc1 (some centres unmarked) [Example 446]"
datavalue = "≥ 7.00"


Indicate its recorded pKi; the compound in question is Cn1cnc(S(=O)(=O)N2C[C@@H](C(=O)c3cc(F)cc(Cl)c3)[C@H](c3ccc(F)cc3)C2)c1 (relative stereo) [Example 361]
≥ 6.00

Indicate its recorded pKi; the compound in question is CCOCCNC(=O)[C@@H]1CN(S(=O)(=O)c2cn(C)cn2)C[C@H]1c1ccc(F)cc1 [Example 584]
≥ 5.00

Indicate its recorded pKi; the compound in question is Cn1cnc(S(=O)(=O)N2C[C@@H](Nc3cccc(F)c3)[C@H](c3ccccc3F)C2)c1 (relative stereo) [Example 199]
≥ 6.00

Indicate its recorded pKi; the compound in question is Cn1cnc(S(=O)(=O)N2C[C@@H](NC(=O)c3ccccc3Cl)[C@H](c3ccccc3)C2)c1 (relative stereo) [Example 14]
≥ 6.00

Indicate its recorded pKi; the compound in question is COc1nccc(N[C@H]2CN(S(=O)(=O)c3cn(C)cn3)C[C@@H]2c2ccccc2)n1 [Example 532]
≥ 5.00

Indicate its recorded pKi; the compound in question is Cn1cnc(S(=O)(=O)N2C[C@@H](C(=O)Nc3ccc(F)c(C(F)(F)F)c3)[C@H](c3ccc(F)cc3)C2)c1 (relative stereo) [Example 274]
≥ 7.00
